The reader will find reported melting point values listed item by item below.

Solved cases below.
melting point for Cn1c(N)c(NC2=CC(=O)CC(C)(C)C2)c(=O)[nH]c1=S is > 300 °C

The molecule Cn1c(=S)[nH]c(=O)c2n[se]nc21 showed melting point equal to > 300 °C

Measured melting point, CC1(C)CC(=O)C=C(Nc2c(N)n(Cc3ccccc3)c(=O)[nH]c2=O)C1 : 292 to 294 °C

Continuing:
Data point: CCn1c(N)c(NC2=CC(=O)CC(C)(C)C2)c(=O)[nH]c1=O ; melting point = > 300 °C

Entry under test: O=c1[nH]c(=O)c2n[se]nc2[nH]1 . Its melting point was > 300 °C

Entry under test: CC1(C)CC(=O)C=C(Nc2c(N)n(Cc3ccccc3Cl)c(=O)[nH]c2=O)C1 . Its melting point was 294 to 296 °C
